- TARGET ENTITY: rRNA adenine N-6-methyltransferase (Staphylococcus aureus (strain N315))
- Sequence (whole entry): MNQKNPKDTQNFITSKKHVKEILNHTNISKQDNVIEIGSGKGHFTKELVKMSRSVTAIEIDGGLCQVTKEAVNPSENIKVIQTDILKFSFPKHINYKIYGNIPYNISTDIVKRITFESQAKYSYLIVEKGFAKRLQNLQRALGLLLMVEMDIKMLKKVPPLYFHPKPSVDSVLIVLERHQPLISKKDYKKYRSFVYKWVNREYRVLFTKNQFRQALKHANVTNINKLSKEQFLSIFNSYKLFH
- TEST DESCRIPTION: Inhibition of recombinant bacterial ErmC' expressed in Escherichia coli DH5alpha assessed as potentiation of erythromycin-mediated growth inhibition by measuring erythromycin MIC after 18 hrs by dilution method (reference value: > 2560 mg/L)
- RECORDED CONDITIONS: Bacteria
Entries and their MIC
READOUT KIND: MIC (µg/mL)

{"columns": ["SMILES REPR", "TARGET ENTITY", "VAL"],
 "data": [
  ["O=C(NCCNc1ncccc1C(F)(F)F)c1cnccn1", "rRNA adenine N-6-methyltransferase (Staphylococcus aureus (strain N315))", 2560],
  ["Cc1nccc(C(=O)Nc2cc(NC(=O)c3ccccc3)ccc2C)n1", "rRNA adenine N-6-methyltransferase (Staphylococcus aureus (strain N315))", 2560],
  ["O=C(CSc1nnc2c(n1)[nH]c1ccccc12)Nc1ccccn1", "rRNA adenine N-6-methyltransferase (Staphylococcus aureus (strain N315))", 2560],
  ["Cc1occc1C(=O)Nc1nc(CC(=O)Nc2ccccc2)cs1", "rRNA adenine N-6-methyltransferase (Staphylococcus aureus (strain N315))", 2560],
  ["O=C(Nc1cccc(NCc2ccncc2)c1)c1ccccc1Cl", "rRNA adenine N-6-methyltransferase (Staphylococcus aureus (strain N315))", 2560],
  ["O=C(Nc1ccncc1)c1ccn(COc2ccc(F)c(Cl)c2)n1", "rRNA adenine N-6-methyltransferase (Staphylococcus aureus (strain N315))", 2000],
  ["Cc1cccc(Nc2nc(C(=O)N3CCN(c4ccc(C(F)(F)F)cn4)CC3)cs2)n1", "rRNA adenine N-6-methyltransferase (Staphylococcus aureus (strain N315))", 2560],
  ["O=C(c1csc(Nc2ncccn2)n1)N1CCN(c2ccc(C(F)(F)F)cn2)CC1", "rRNA adenine N-6-methyltransferase (Staphylococcus aureus (strain N315))", 2000],
  ["O=C(Cc1cccc(F)c1)Nc1cccc(-c2ccn[nH]2)c1", "rRNA adenine N-6-methyltransferase (Staphylococcus aureus (strain N315))", 2560],
  ["O=C(Nc1nccs1)c1cc(-c2ccccn2)nc2ccccc12", "rRNA adenine N-6-methyltransferase (Staphylococcus aureus (strain N315))", 2560],
  ["O=C(NCCNc1ccc(C(F)(F)F)cn1)c1cnccn1", "rRNA adenine N-6-methyltransferase (Staphylococcus aureus (strain N315))", 2000]
]}

###

Entries and their MIC
- TARGET ENTITY: rRNA adenine N-6-methyltransferase (Staphylococcus aureus (strain N315)) (UniProt P0A0H2)
- Sequence (whole entry): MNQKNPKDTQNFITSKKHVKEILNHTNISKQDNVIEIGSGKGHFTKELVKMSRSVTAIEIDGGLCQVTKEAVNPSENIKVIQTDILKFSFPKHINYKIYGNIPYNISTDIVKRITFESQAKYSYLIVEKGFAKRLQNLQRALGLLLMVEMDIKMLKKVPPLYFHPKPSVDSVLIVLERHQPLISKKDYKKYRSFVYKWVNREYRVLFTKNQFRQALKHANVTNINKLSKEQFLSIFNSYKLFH
- TEST DESCRIPTION: Inhibition of recombinant bacterial ErmC' expressed in Escherichia coli DH5alpha assessed as potentiation of erythromycin-mediated growth inhibition by measuring erythromycin MIC after 18 hrs by dilution method (reference value: > 2560 mg/L)
- RECORDED CONDITIONS: Bacteria
READOUT KIND: MIC (µg/mL)

{"columns": ["SMILES REPR", "READOUT KIND", "VALUE UNITS", "RELATIONAL OPERATOR", "VAL"],
 "data": [
  ["O=C(NC1CCN(c2nc3ccccc3s2)CC1)c1ccncc1", "MIC", "µg/mL", "=", 2560],
  ["O=C(c1n[nH]c(=O)[nH]1)N1CCN(c2ccc(C(F)(F)F)cn2)CC1", "MIC", "µg/mL", "=", 2560],
  ["FC(F)(F)c1ccc(N2CCN(Cc3c[nH]c(-c4ccccc4)n3)CC2)nc1", "MIC", "µg/mL", "=", 2560],
  ["CN(C)c1ccc(CNC(=O)c2ccc(-n3cncn3)cc2)cc1", "MIC", "µg/mL", "=", 2000],
  ["CCCc1cc(C(=O)Nc2cccc(OCc3ccncc3)c2)[nH]n1", "MIC", "µg/mL", ">", 2560],
  ["O=C(c1ccn[nH]1)N1CCN(c2ccc(C(F)(F)F)cn2)CC1", "MIC", "µg/mL", "=", 2560]
]}
